Biological target: rabbit uterine ER (Oryctolagus cuniculus, UniProt G1SML6)
Construct: from tissue; host or cells: rabbit uterus
Sequence (G1SML6 1-598): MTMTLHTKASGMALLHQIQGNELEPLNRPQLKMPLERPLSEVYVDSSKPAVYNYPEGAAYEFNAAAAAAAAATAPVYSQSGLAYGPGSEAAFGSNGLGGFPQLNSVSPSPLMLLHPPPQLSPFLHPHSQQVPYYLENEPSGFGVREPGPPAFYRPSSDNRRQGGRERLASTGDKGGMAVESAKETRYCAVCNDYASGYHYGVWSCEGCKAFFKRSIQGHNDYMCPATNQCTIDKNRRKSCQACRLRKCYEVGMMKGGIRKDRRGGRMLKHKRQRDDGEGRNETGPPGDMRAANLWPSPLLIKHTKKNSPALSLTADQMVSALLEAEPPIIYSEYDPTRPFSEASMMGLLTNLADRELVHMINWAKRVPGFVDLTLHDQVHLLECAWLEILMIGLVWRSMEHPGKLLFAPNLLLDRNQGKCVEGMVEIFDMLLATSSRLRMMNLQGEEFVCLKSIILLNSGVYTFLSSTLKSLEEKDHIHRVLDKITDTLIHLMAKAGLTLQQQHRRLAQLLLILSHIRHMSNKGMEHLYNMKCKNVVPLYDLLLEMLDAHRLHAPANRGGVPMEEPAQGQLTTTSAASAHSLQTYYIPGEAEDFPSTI
Assay: Radiometric competitive binding assay for the ER (RBA)
Settings: RBA for estradiol is 100
MEASURE_NAME: relative binding affinity (RBA) for the ER

Field: example entries. Status: answers known.
INSERT INTO measurements (compound, observed) VALUES
  ('CC12CCC3c4ccc(O)cc4CC(CCCCCCNCCCCc4ccc(N(CCCl)CCCl)cc4)C3C1CCC2O (centres unmarked)', 40),
  ('O=P(NCCO)(c1ccccc1)c1ccccc1', 'comparable affinities'),
  ('CC12CCC3c4ccc(O)cc4CC(CCCCCCNCCNC(=N)NCCCc4ccc(N(CCCl)CCCl)cc4)C3C1CCC2O (centres unmarked)', 'low RBAs'),
  ('CC12CCC3c4ccc(O)cc4CC(CCCCCCNC(=N)NCCCc4ccc(N(CCCl)CCCl)cc4)C3C1CCC2O (centres unmarked)', 'comparable affinities');

# input Reported relative binding affinity (RBA) for the ER for CC12CCC3c4ccc(O)cc4CC(CCCCCCNC(=O)CCCc4ccc(N(CCCl)CCCl)cc4)C3C1CCC2O (centres unmarked) : what is it?
# output low RBAs

# input Reported relative binding affinity (RBA) for the ER for CC12CCC3c4ccc(O)cc4CC(CCCCCCOC(=O)NCCCc4ccc(N(CCCl)CCCl)cc4)C3C1CCC2O (centres unmarked) : what is it?
# output low RBAs

# input Reported relative binding affinity (RBA) for the ER for CC(C)(C)[Si](C)(C)OCCNP(=O)(c1ccccc1)c1ccccc1 : what is it?
# output comparable affinities

The origin of these recorded values is patent US20060019936A1.
